Known pIC50 of a selection of compounds
# Tested on: Kidney
# assay.method.text: Antioxidant activity in Sprague-Dawley rat kidney assessed as lipid peroxidation by thiobarbituric acid assay
# Type: functional, tissue-based
pIC50: −log10 of the molar value.
property.name: pIC50

COc1cc([C@@H]2c3cc4c(cc3C[C@H]3COC(=O)[C@@H]32)OCO4)cc(OC)c1OC(=O)[C@@H]1CCCN1C(=O)OC1CC(C)(C)N([O])C(C)(C)C1 | 4.84
COc1cc([C@@H]2c3cc4c(cc3C[C@H]3COC(=O)[C@@H]32)OCO4)cc(OC)c1OC(=O)CNC(=O)OC1CC(C)(C)N([O])C(C)(C)C1 | 4.86
CC[C@H](C)[C@H](NC(=O)OC1CC(C)(C)N([O])C(C)(C)C1)C(=O)Oc1c(OC)cc([C@@H]2c3cc4c(cc3C[C@H]3COC(=O)[C@@H]32)OCO4)cc1OC | 5.16
COc1cc([C@@H]2c3cc4c(cc3C[C@H]3COC(=O)[C@@H]32)OCO4)cc(OC)c1OC(=O)[C@H](C)NC(=O)OC1CC(C)(C)N([O])C(C)(C)C1 | 4.80
COc1cc([C@@H]2c3cc4c(cc3C[C@H]3COC(=O)[C@@H]32)OCO4)cc(OC)c1OC(=O)[C@H](Cc1ccccc1)NC(=O)OC1CC(C)(C)N([O])C(C)(C)C1 | 4.82
